- tested-on: Dihydroorotate dehydrogenase (quinone), mitochondrial (Plasmodium falciparum (isolate 3D7))
- protocol-description: PfDHODH enzyme inhibitors, primary screen, biochemical, C-terminal His tag, absorbance 600 nm (AID 1175);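 note: recombinant parasite enzyme with a five histidine tag at its C terminus; test concentration not given here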
- run-parameters: DCIP absorbance 600 nm, higher = more signal, called active from +8 up or from −8 down
Label Fulfilled when composite z-score >= -0.04; otherwise Not fulfilled.

Example cases with answers are listed next.
{"columns": ["molecule", "qualitative-label"],
 "data": [
  ["C=CCC(OC(C)=O)[C@@H]1[C@@H](N(Cc2cccc3ccccc23)C(=O)c2ccc(-c3ccccc3)cc2)c2cc(OCCCO)ccc2N1C(=O)c1ccc2ccccc2n1 (some centres undefined)", "Not fulfilled"],
  ["O=C1c2ccccc2[C@](Cc2ccccc2I)(C(=O)O)[C@H](c2ccc(CO)cc2)N1Cc1ccccc1", "Not fulfilled"]
]}

INPUT: Test whether the molecule CC(C)(C)OC(=O)CC[C@]1(C(=O)N2CCOCC2)N=C(c2ccc(OCCCO)cc2)O[C@H]1c1ccccc1CN=[N+]=[N-] records composite z-score of -0.04 or higher.
OUTPUT: Not fulfilled

INPUT: // next record O=C1C2C=CC(C(O)c3ccc([N+](=O)[O-])cc3)N(Nc3ccccc3)C2C(=O)N1c1ccccc1 (centres undefined)
OUTPUT: Not fulfilled

INPUT: Can you handle CN1C=C(C(=O)OCCS(C)(=O)=O)C(C(=O)OCCS(C)(=O)=O)=CC(CCCO)=CC1c1ccc(CN2CCCC2)cc1 (centres undefined) next?
OUTPUT: Not fulfilled

INPUT: Next entry: CCOC(=O)C[C@H]1[C@H](OC(=O)c2cc3ccccc3oc2=O)[C@@H](NC(=O)C2CCCCC2)c2cc(OCCCO)ccc2N1C(=O)Cc1ccc(OC)cc1
OUTPUT: Fulfilled

INPUT: Input COc1cc2c(cc1O)C(c1ccc(CN3CCCC3)cc1)N(Cc1ccc([N+](=O)[O-])o1)CC2 (centres undefined)
OUTPUT: Not fulfilled

INPUT: One more molecule: CC(C)C[C@@H]1NC(=O)[C@@]23C(=O)N[C@@H](Cc4ccccc4)C2[C@H](C)[C@@]2(C)O[C@H]2C3/C=C/C/C=C\CNC(=O)[C@@H](CC(C)C)NC1=O (some centres undefined)
OUTPUT: Not fulfilled

INPUT: How about CC(C)C[C@@H]1NC(=O)[C@@H]2C[C@H](C(=O)O)[C@H](c3ccc(O)cc3)N2C1=O ?
OUTPUT: Fulfilled

INPUT: Then this molecule: NC(=O)NCC#Cc1ccc2c(c1)[C@]1(C(=O)N2)[C@H](C(=O)N2CCCCCCC2)[C@H]2C(=O)O[C@H](c3ccccc3)[C@H](c3ccccc3)N2[C@@H]1c1ccc(O)cc1
OUTPUT: Fulfilled

----------
- protocol-description: small-molecule microarray binders of probe aShh, primary screen, biochemical, biotinylated probe, 635/667 nm fluorescence (AID 1114);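 note: probe is biotin-labelled aShh protein from a stem cell growth factor screen; measures binding of labelled protein to compounds printed on the slide; score merges feature fluorescence at 667 nm with signal-to-noise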
- run-parameters: higher = more signal
Please provide measured composite z-score for the entries that follow.
Numbers only.

// input: 2 compounds below; output: composite z-score for each
1. COC(=O)[C@@]1(Cc2ccc(F)cc2)[C@H]2c3cc(C(=O)N(C)C)n(CCN4CCOCC4)c3C[C@H]2CN1C(=O)c1ccccc1
2. CC(C)(C)OC(=O)CC[C@]1(C(N)=O)N=C(c2ccc(OCCCO)cc2)O[C@H]1c1ccccc1CN=[N+]=[N-]

OUTPUT:
[0.275, 0.84]
